Would you mind telling me the reported melting point of each entry?

For orientation, consider the following solved cases.
CCC(CC)c1ccc(Cl)c2nc(Nc3c(C)cc(Cl)cc3OC)n(CC(=O)OC(C)C)c12 [Example 102] ... 205 to 207 °C
CCC(CC)c1ccc(Cl)c2nc(Nc3c(C)cc(Cl)cc3C)n(C)c12 [Example 83] ... 247 to 249 °C
CCCC(CCC)c1ccc(Cl)c2nc(Oc3c(C)cc(Cl)cc3Cl)n(C)c12 [Example 129] ... 148 to 150 °C
CCC(CC)c1ccc(Cl)c2nc(Oc3c(C)cc(Cl)cc3OC)n(C)c12 [Example 144] ... 165 to 167 °C
CCC(CC)c1ccc(Cl)c2nc(Oc3ccc(Cl)cc3Cl)n(C)c12 [Example 98] ... 87 to 89 °C
COc1cc(Cl)cc(C)c1Nc1nc2c(Cl)ccc(C(O)(C(C)(C)C)C(C)(C)C)c2n1C [Example 106] ... 246 to 248 °C
CCC(CC)c1ccc(Cl)c2nc(Oc3c(Cl)cc(N(C)C)cc3Cl)n(C)c12 [Example 142] ... 200 to 202 °C
CCc1cc(CC)n(-c2cccc3nc(Oc4c(C)cc(Cl)cc4Cl)n(C)c23)n1 [Example 162] ... 115 to 119 °C

Could you now look at the following compound, please?
Enquiry: Please report the recorded melting point for CCC(CC)c1ccc(Cl)c2nc(Nc3ccc(C)cc3Br)n(C)c12 [Example 86] .
Return: 174 to 176 °C
